System: CCRF-CEM
Assay: selective drug sensitivity score (sDSS, relative to normal bone marrow) (sDSS (score)); higher = more potent and effective on the cell line relative to normal bone marrow cells;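 further: ALL cell lines in 384-well plates, five doses spanning 10,000-fold, each plate scaled between vehicle and 100 µmol/L benzalkonium chloride controls, sDSS an adapted area-under-curve metric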
Settings: 72 h
measure-name: selective drug sensitivity score
The answer should be written as a number, with no unit following it.

For orientation, consider the following solved cases.
compound: NC(=S)N/N=C/c1ncccc1N [Triapine] (top concentration 10000 nM)
readout-value: 2.68
--
compound: CN1CC[C@H](c2c(O)cc(O)c3c(=O)cc(-c4ccccc4Cl)oc23)[C@H](O)C1 [Alvocidib] (top concentration 10000 nM)
readout-value: 0.6
--
compound: Cc1ccc(C(=O)N(CCCN)[C@@H](c2oc3cc(Cl)ccc3c(=O)c2Cc2ccccc2)C(C)C)cc1 (top concentration 100 nM)
readout-value: 2.76

Field selective drug sensitivity score (system: CCRF-CEM) for entry Nc1cc(COc2c(Cl)cc(C[C@H](N)C(=O)O)cc2Cl)c2oc(-c3ccccc3)nc2c1 [JPH203] (top concentration 5000 nM) = 0

Field selective drug sensitivity score (system: CCRF-CEM) for entry C[C@@H]1C[C@H]2[C@@H]3CCC4=CC(=O)C=C[C@]4(C)[C@@]3(F)[C@@H](O)C[C@]2(C)[C@@]1(O)C(=O)CO [Dexamethasone] (top concentration 10000 nM) = 13.9

Field selective drug sensitivity score (system: CCRF-CEM) for entry CCN(CC)C(=S)SSC(=S)N(CC)CC [Disulfiram(+CuCl2)] (top concentration 50000 nM) = -2.12

----------
System: REH
Assay: selective drug sensitivity score (sDSS, relative to normal bone marrow) (sDSS (score)); higher = more potent and effective on the cell line relative to normal bone marrow cells
Conditions: 72 h
measure-name: selective drug sensitivity score
The answer should be written as a number, with no unit following it.

For orientation, consider the following solved cases.
molecule: C[C@@H](Oc1ccc2[nH]nc(/C=C/c3cnn(CCO)c3)c2c1)c1c(Cl)cncc1Cl (top concentration 1000 nM)
selective drug sensitivity score: -0.64
--
molecule: Cc1nc(-c2cn3c(n2)-c2ccc(-c4cnn(C(C)(C)C(N)=O)c4)cc2OCC3)n(C(C)C)n1 [Taselisib] (top concentration 1000 nM)
selective drug sensitivity score: 5.7
--
molecule: CC/C(=C(\c1ccccc1)c1ccc(OCCN(C)C)cc1)c1ccccc1 [Tamoxifen] (top concentration 10000 nM)
selective drug sensitivity score: 1.02
--
molecule: CCCOc1ccn2c(C(C)=O)cc(-c3ccccc3S(C)(=O)=O)c2c1 [GSK2801] (top concentration 10000 nM)
selective drug sensitivity score: -0.36
--
molecule: C=C1C[C@@H]2[C@H](CC[C@]3(C)C(=O)CC[C@@H]23)[C@@]2(C)C=CC(=O)C=C12 [Exemestane] (top concentration 10000 nM)
selective drug sensitivity score: -1.9

Okay, next one:
According to the records, this molecule Cc1c(Cn2c(C)nc3c(C(=O)O)cc(N4CCOCC4)cc32)cccc1C(F)(F)F (top concentration 10000 nM) displays selective drug sensitivity score of 0.68

----------
Test system: SEM cells
Assay: selective drug sensitivity score (sDSS, relative to normal bone marrow) (sDSS (score)); higher = more potent and effective on the cell line relative to normal bone marrow cells
Settings: 72 h
Where selective drug sensitivity score equals or exceeds 4, the correct label is Satisfied; where it does not, the label is Not satisfied.

compound: Cn1cncc1[C@@](N)(c1ccc(Cl)cc1)c1ccc2c(c1)c(-c1cccc(Cl)c1)cc(=O)n2C [Tipifarnib] (top concentration 10000 nM)
target: SEM cells
label: Satisfied
//
compound: Cc1ccc(C(=O)Nc2ccc(Oc3cc4cnn(C)c4cc3-c3cn[nH]c3)c(F)c2)c(=O)n1-c1ccc(F)cc1 [Merestinib] (top concentration 1000 nM)
target: SEM cells
label: Satisfied
//
compound: C=CCc1cccc(/C=N/NC(=O)CN2CCN(Cc3ccccc3)CC2)c1O [PAC-1] (top concentration 10000 nM)
target: SEM cells
label: Not satisfied
//
compound: C=CCN(/C=C1/C(=O)O[C@H](COC)[C@@]2(C)C1=C(O)C(=O)C1=C2[C@H](OC(C)=O)C[C@]2(C)C(=O)CC[C@@H]12)CC=C [Sonolisib] (top concentration 10000 nM)
target: SEM cells
label: Not satisfied
//
compound: Cc1ccc(C(=O)N(CCCN)[C@@H](c2oc3cc(Cl)ccc3c(=O)c2Cc2ccccc2)C(C)C)cc1 (top concentration 100 nM)
target: SEM cells
label: Satisfied
//
compound: CNC(=O)c1ccc(-c2cnc3ncc(Cc4ccc5ncccc5c4)n3n2)cc1F [Capmatinib] (top concentration 1000 nM)
target: SEM cells
label: Not satisfied

Hi, just wondering whether CN(C)C[C@@H]1CCn2cc(c3ccccc32)C2=C(C(=O)NC2=O)c2cn(c3ccccc23)CCO1 [Ruboxistaurin] (top concentration 10000 nM) shows selective drug sensitivity score of 4 or higher.
Not satisfied

Hi, just wondering whether CC1(C)CC[C@]2(NC(=O)C(C)(F)F)CC[C@]3(C)[C@H](C(=O)C=C4[C@@]5(C)C=C(C#N)C(=O)C(C)(C)[C@@H]5CC[C@]43C)[C@@H]2C1 [Omaveloxolone] (top concentration 10000 nM) shows selective drug sensitivity score of 4 or higher.
Satisfied

Hi, just wondering whether C[C@]12CC[C@@H]3c4ccc(O)cc4C[C@@H](CCCCCCCCC[S+]([O-])CCCC(F)(F)C(F)(F)F)[C@H]3[C@@H]1CC[C@@H]2O (some centres undefined) [Fulvestrant] (top concentration 1000 nM) shows selective drug sensitivity score of 4 or higher.
Not satisfied

Hi, just wondering whether CCC(C)(C)C(=O)O[C@H]1C[C@@H](C)C=C2C=C[C@H](C)[C@H](CC[C@@H]3C[C@@H](O)CC(=O)O3)[C@H]21 [Simvastatin] (top concentration 10000 nM) shows selective drug sensitivity score of 4 or higher.
Not satisfied

Hi, just wondering whether Sc1ncnc2nc[nH]c12 [Mercaptopurine] (top concentration 10000 nM) shows selective drug sensitivity score of 4 or higher.
Satisfied

Hi, just wondering whether COc1cc(N2CCC(N3CCN(C)CC3)CC2)ccc1Nc1ncnc(Nc2ccccc2S(=O)(=O)C(C)C)n1 [ASP3026] (top concentration 10000 nM) shows selective drug sensitivity score of 4 or higher.
Not satisfied

Hi, just wondering whether Nc1cccc2c1CN(C1CCC(=O)NC1=O)C2=O (centres undefined) [Lenalidomide] (top concentration 100000 nM) shows selective drug sensitivity score of 4 or higher.
Not satisfied

Hi, just wondering whether Nc1ncnc2c1nc(Cl)n2[C@@H]1O[C@H](CO)[C@@H](O)[C@H]1O [8-chloro-adenosine] (top concentration 50000 nM) shows selective drug sensitivity score of 4 or higher.
Satisfied

Hi, just wondering whether CNC(=O)c1cc(Oc2ccc(NC(=O)Nc3ccc(Cl)c(C(F)(F)F)c3)cc2)ccn1 [Sorafenib] (top concentration 1000 nM) shows selective drug sensitivity score of 4 or higher.
Satisfied

Hi, just wondering whether CC(C)(C)C[C@@H]1N[C@@H](C(=O)N[C@H]2CC[C@H](O)CC2)[C@H](c2cccc(Cl)c2F)[C@]12C(=O)Nc1cc(Cl)ccc12 (top concentration 10000 nM) shows selective drug sensitivity score of 4 or higher.
Not satisfied

----------
Tested on: ALL-SIL
Experiment: selective drug sensitivity score (sDSS, relative to normal bone marrow) (sDSS (score)); higher = more potent and effective on the cell line relative to normal bone marrow cells
Settings: 72 h
measure-name: selective drug sensitivity score
The answer should be written as a number, with no unit following it.

For orientation, consider the following solved cases.
compound: CCN1CCN(Cc2ccc(Nc3ncc(F)c(-c4cc(F)c5nc(C)n(C(C)C)c5c4)n3)nc2)CC1 [Abemaciclib] (top concentration 2500 nM)
readout-value: -2.66
//
compound: Sc1ncnc2nc[nH]c12 [Mercaptopurine] (top concentration 10000 nM)
readout-value: 14.8
//
compound: COc1cc2c(cc1OCCCN1CCCC1)N=C(N)C21CCC1 [A-366] (top concentration 25000 nM)
readout-value: -0.34
//
compound: NCC(=O)Nc1ccc(-n2nc(C(F)(F)F)cc2-c2ccc3c(ccc4ccccc43)c2)cc1 (top concentration 25000 nM)
readout-value: 8.4
//
compound: Oc1nc(-c2ccc(C(F)(F)F)cc2)nc2c1CSCC2 [XAV939] (top concentration 10000 nM)
readout-value: -0.14

According to the records, this compound C=CCc1cccc(/C=N/NC(=O)CN2CCN(Cc3ccccc3)CC2)c1O [PAC-1] (top concentration 10000 nM) displays selective drug sensitivity score of 3.18

According to the records, this compound Cn1ncc(Cl)c1-c1cc(C(=O)N[C@H](CN)Cc2cccc(F)c2)sc1Cl [Afuresertib] (top concentration 1000 nM) displays selective drug sensitivity score of 3.66

----------
Entries and their measured selective drug sensitivity score follow.
Test system: COG-LL-355h
Assay: selective drug sensitivity score (sDSS, relative to normal bone marrow) (sDSS (score)); higher = more potent and effective on the cell line relative to normal bone marrow cells
Settings: 72 h
The answer should be written as a number, with no unit following it.

compound: COc1cc(C)[nH]c(=O)c1CNC(=O)c1c(C)n([C@H](C)C2CCOCC2)c2ccccc12 [CPI-360] (top concentration 10000 nM)
selective drug sensitivity score: 0

According to the records, this compound CC(C)(C)C[C@@H]1N[C@@H](C(=O)N[C@H]2CC[C@H](O)CC2)[C@H](c2cccc(Cl)c2F)[C@]12C(=O)Nc1cc(Cl)ccc12 (top concentration 10000 nM) displays selective drug sensitivity score of 8.46

According to the records, this compound NC(=S)N/N=C/c1ncccc1N [Triapine] (top concentration 10000 nM) displays selective drug sensitivity score of 1.08

According to the records, this compound COCCOc1cnc2ccn([C@H](C)c3nnc4c(F)cc(-c5cnn(C)c5)cn34)c(=O)c2c1 [AMG-337] (top concentration 10000 nM) displays selective drug sensitivity score of -0.06

Data provenance: the supplement of paper PMC8967900
